- assay-summary: folding stability dG unfold (combined trypsin and chymotrypsin); higher = more stable
Exercise: for every item that follows, state its recorded folding stability dG unfold.
Report as a plain number; the unit kcal/mol is understood.

folding stability dG unfold recorded for this sequence, SAGGSAGGSAGGSKEIKVEVEEKDGKLTVTVTFPDGSKVEIEGMSAEEVEKLVKELAKKSAGGSAGGSAGGS [r4_383_TrROS_Hall] , is 2.06

// folding stability dG unfold lookup, sequence = SAGGSAGGEEIAKKLRDLAKKLGLDVEIKKIEVTKYPLPEGDENKEEKWVTTITITVNGKKITLSAGGSAGG [r6_686_TrROS_Hall] , result: 2.37

Lookup result for SAGGSAMDAKVVDLSLPFTLSEDGSLTATVTIEFPDGSKVPIEIPGREDGELKLEEILAAAKEALGSAGGSA [r15_233_TrMRF] ; measured folding stability dG unfold: 0.478

Lab note: SAGGSAGGIMIDSPEQMEEFAKDFFQNGYHEVPIHVMDPNGNWQTFPFTIEVPPPKPEPDPGKKSAGGSAGG [r6_258_TrROS] gave folding stability dG unfold of 0.111

// recorded folding stability dG unfold for SAGGSAGGSKKPKITITIEILVKNEDGKLYLFRIEIEINENGEISIKMEIFELKDIKPGDILLSAGGSAGGS [r12_38_TrROS_Hall] : 3.56

----------
- assay-summary: folding stability dG unfold (combined trypsin and chymotrypsin); higher = more stable
observed-property: folding stability dG unfold (kcal/mol)
Express it in kcal/mol; write the number only.

Looking up SAGGSAGGKPKIIEEKELEFTRKDGKKVKIKLVKNEDGKVFAFNKDTGKVITLPLDELKALLKSSAGGSAGG [r6_579_TrROS_Hall] , I see its folding stability dG unfold listed as 2.27

Value of measured folding stability dG unfold for the entry SAGGSAGGSAGGGPMLRYTLTFTLPDSTVTKEFSSEEEVEEAKEQLPEEYPVDPNVTVSPSAGGSAGGSAGG [r7_18_JUSTAS] : -0.22

Sample SKKTVTIELYVPNMTPEQLRALLEALGYKVKKEEFDEDRGVVRLTVELPEDGTTITITIVRPPLPPGEKPSA [r9_1090_TrROS_Hall] ; folding stability dG unfold observed: 2.59

folding stability dG unfold recorded for this sequence, SGMKSVTTPVSLTINTSPEEAEEFIEKLAKERGIEDVTVVKVTTDPATGTLTVEAELHTTIPPLPPPSSVSA [r9_918_JUSTAS] , is 1.1

Reported folding stability dG unfold of SAGGSAGGSAGGMINIEGSSFEIVQPDGKPIGSESTGSAEELAKKLPSSYSVLPKGVPPSAGGSAGGSAGGS [r10_310_JUSTAS] : 2.25

Consider SAGGSADNIEFKFPGIEEVTVWPDKIMFKLPNGYYYVITINNIDEIEIIEVIPPVPPPPPEDPDDKSAGGSA [r15_393_TrROS] . Its measured folding stability dG unfold is 2.4

folding stability dG unfold measured on SAGGSAGGSAGGGPNIRTVTETTVEPTPDSVVTTRPVYYVDPSGTVLGSETTTTVDPNTTSAGGSAGGSAGG [r7_812_JUSTAS] = -0.26

Quick note, folding stability dG unfold for SAGGSAGGSAGGDPVTVLSIKPEPGKLTVTTNTRADGSTTTTTVSPENPPNIKPGEPLSSAGGSAGGSAGGS [r10_834_JUSTAS] landed at 0.109

Given item SAGGSAGGMKKYKMTITFKTPDGTPVKEKTIYFNSEEEAKKAAEEIKKKELEPDTPVTVSKEPDSAGGSAGG [r6_286_JUSTAS] , the value recorded as its folding stability dG unfold is 0.898

Entry SAGGSAGGSAMITTPKGERFEVPLRLTPDGRLEVLVVTDRPDDPEVRELAERLARELAERLSAGGSAGGSAG [r3_163_TrMRF] , folding stability dG unfold reported as 0.484

Lab note: measured folding stability dG unfold of SAGGSAGGSAGGSDSSVITFDIPVSEYPAKIKLSPETKTMTVVSTSPEGTVKVAIERPGSAGGSAGGSAGGS [r10_352_JUSTAS] was -0.889

The value of folding stability dG unfold measured for the sequence SAGGSVKQIALRIARDMGYPNVKVEEIPIEKTPNGWVQIPITVEHPKDGKPIGPFQIHIRPGDPIVSAGGSA [r2_137_TrROS] turned out to be 0.731

Lab book: folding stability dG unfold of SAGGSAGGSKITVERNEDGELFVRITFKDGKTITIKAKSVEELKEKLKELGFDVKVEVVERKPSAGGSAGGS [r20_124_TrROS_Hall] noted as 4.18

----------
- assay-summary: folding stability dG unfold from trypsin proteolysis; higher = more stable
Could you label it true (1) if measured folding stability dG unfold is 2 kcal/mol or higher, and false (0) otherwise?

Query block: In plain terms: is recorded folding stability dG unfold at least 2 kcal/mol for SAGGGHMVNVTLTGSSIEEIKKELEELAKKYGFVINPKKVEKLPGPKYKITLNIKAPDEVVELIKKKSAGGS [r8_357_JUSTAS] ?
Result block: false (0)

Query block: Evaluate SAGQTITFELKDPDITPEELQKKLQKRFGMKPMNIKPVEPDPDGWRFVIEFPENGGTRTFPWEEIRELISAG [r5_550_TrROS] : folding stability dG unfold at minimum 2 kcal/mol?
Result block: false (0)

Query block: Item SAGGSMVKVEVHYDPERDLVLVTVEAPDDPELVDEFVERMKKLGAKRVEVFRFPEDGKVRILVEIGSAGGSA [r2_358_TrMRF] with folding stability dG unfold of 2 kcal/mol or above?
Result block: true (1)

Query block: Is reported folding stability dG unfold greater than or equal to 2 kcal/mol here: SAGGSAGGSAGPSDDVKPYEVEAEFLIPGTGERVRVRAEVYTLDEEKGLALVRVEVEPVLSAGGSAGGSAGG [r11_1029_TrMRF]
Result block: false (0)

Query block: Tell me whether folding stability dG unfold is at least 2 kcal/mol here: SAEVRPDEVLRIEVRLRVGDVEFTAEAEIPAGLSEEEIREAVERIREEAERLAERLRRLPPLRPPEELLSAG [r14_70_TrMRF]
Result block: false (0)

Query block: Hello, I need to know if SAGPVVVDPNGKLLPLKVKAVFVIDPELLEEKAKESDNSLEKAIRDLVKELEAELKAKGYDVEVEGIGSAGG [r19_305_TrMRF] has measured folding stability dG unfold not below 2 kcal/mol. Thanks!
Result block: false (0)

Query block: Determine whether measured folding stability dG unfold meets or exceeds 2 kcal/mol for SAGSVEVSVSGNEIHITAPEGISLEELIELIKKLFPGADIGEVSVEKLPDGRYVATFKAGFKPPSPDELSAG [r5_110_TrMRF]
Result block: true (1)

Query block: Reported folding stability dG unfold at or above 2 kcal/mol? SAGGVVYYATFTIYDPKRKLPNGELAYEETPIYKKFDPKEIEKFIKELKDKLKKEGRKIKAEITKVLSAGGS [r8_10_JUSTAS]
Result block: false (0)

Query block: Check if folding stability dG unfold >= 2 kcal/mol (inclusive). Item: SAGGSAAPVSRVVELEFVLPPELVAEAVDALRKLPGVKASFELAEVLPDGYVRVRVTIEVPDDVDLSAGGSA [r15_441_TrMRF]
Result block: true (1)

Query block: State whether the measured folding stability dG unfold reaches 2 kcal/mol, counting equality as reaching it, for SKITITIEEEEVEVNGKKYKVFKVTATVTVTEYKFKDGKLVEKKTKTKTITVRIVLDKNGKIVKIEPLPDSA [r9_829_TrROS_Hall]
Result block: true (1)

Query block: Reported folding stability dG unfold at or above 2 kcal/mol? GMTVTHTAEAGGRPLTITVTRSPDGWEVTVTDPDGTPIFSKTIPSDKNATLTLTDSAGNPLVTVNITLPPES [r1_34_JUSTAS]
Result block: true (1)

Query block: Hi, just wondering whether SAMERVEIVVKVKVRPDMSLEELKERVERELRRLLEERGIELPEGAKITVEIVEETEDYVVVKVTIELPSAG [r14_735_TrROS_Hall] shows folding stability dG unfold of 2 kcal/mol or higher.
Result block: true (1)

Query block: // inclusive: folding stability dG unfold at least 2 kcal/mol? input: SAGGSAGGSAGRAEIPITFNGKKVEVEVEPDPDNGHPIITIKFGNKPVVINPDGQIRPFPSAGGSAGGSAGG [r11_732_TrROS]
Result block: false (0)

Query block: Answer whether folding stability dG unfold of SAGGSAGGSAGGIKPGEKPVYKVKIYNEETGEELEVEFKTLEELEKLKIPGVKKIEVEKVSAGGSAGGSAGG [r7_793_TrROS_Hall] is greater than or equal to 2 kcal/mol.
Result block: false (0)

Query block: Determine whether this sequence has folding stability dG unfold no lower than 2 kcal/mol: SAGGSAGGSAMNRYRILLLDPENGKPLVFELPGNMTPEEAKEAAEELAERFGVTVVAIEGFPSAGGSAGGSA [r18_322_TrMRF]
Result block: true (1)

Query block: Quick check, folding stability dG unfold >= 2 kcal/mol? SAPKNYRFKIYFPNGVEFTIPPGWDLEIEEFDPEDGVIRIKMTRYDKDDGKPVEKHDFPFPFRILEPDPSAG [r14_927_TrROS]
Result block: false (0)

Query block: Determine whether measured folding stability dG unfold meets or exceeds 2 kcal/mol for SAGGSAGGMIIRITTKNGKTLEIKAKSLEEAKAAIAEKLGLSKENIKPEDITKVEIYSEEELKESAGGSAGG [r6_586_TrROS_Hall]
Result block: true (1)

Query block: I'd appreciate it if you could say whether SAGGSAGGSAPLIELRPPEEPLFLPLENLLGRGIPLEELAKLLEKLTGRKVEPVKPGYIRTGSAGGSAGGSA [r18_7_TrMRF] has folding stability dG unfold at least equal to 2 kcal/mol.
Result block: false (0)

Query block: Reported folding stability dG unfold at or above 2 kcal/mol? SASNRVTVSSETVREGDKKLLKLTVTITDSSTGRTSTETLTTEDPEKAREELAARPDVSTLTFETLTPGSAG [r14_464_JUSTAS]
Result block: false (0)

Query block: Does the sequence SMYVIETSANKTYTVNVPPDGLVTITYPDGSTETRKFTSEEDLEAFAEELSKKYPDAPATIKPVPLEELGSA [r9_1206_JUSTAS] have recorded folding stability dG unfold that is 2 kcal/mol or more?
Result block: false (0)

Query block: Has SAGKKSIVAPYEELKKIIELLPSGKKYKVIASDPNGKKIEGTIEVKGGKAKIEPGPKNTFKDLLIVITGSAG [r5_85_TrMRF] a recorded folding stability dG unfold greater than or equal to 2 kcal/mol?
Result block: false (0)

Query block: I'd appreciate it if you could say whether SAGGGMSVSELKKFFPNLKPGATFVLKDPNSDRTGTGTLLSDGTIKVQLPGSEVTVPDDTLVVSISASAGGS [r8_162_JUSTAS] has folding stability dG unfold at least equal to 2 kcal/mol.
Result block: false (0)

Query block: Is it the case that SAGGSIPADTVATLTLPDRDLAVRVELVDGTPRYLVTGPDGTPVGTLTPEEFAAFVAALPADARLDLRSAGG [r13_657_JUSTAS] has folding stability dG unfold reaching or exceeding 2 kcal/mol?
Result block: false (0)

Query block: Item SAGGSAGGSSGMVKAEFGLVAPDGTPVSTRTLTFSSEEEIEEALAALPEFSLALVPDVKRGPLSAGGSAGGS [r12_182_JUSTAS] with folding stability dG unfold of 2 kcal/mol or above?
Result block: false (0)

Query block: Evaluate SAGELKPGQIVVRTIEIDLPEEDEELREAIERGELIELELEDGSRVLMRVERKDGKLRITEVVILPRPESAG [r5_223_TrROS_Hall] : folding stability dG unfold at minimum 2 kcal/mol?
Result block: false (0)

Query block: Is folding stability dG unfold for SAGGSAGGGMLNGLLEKLLLAEPVEVDPVTTTVTPSPNGTVTTTPVYSTADDSVLTETQTTPVASAGGSAGG [r6_326_JUSTAS] at or above 2 kcal/mol?
Result block: false (0)

Query block: Evaluate SAGGSENPNDPRPVVPVGVAVVDIEIHGHPDMTEEERLAAVEEAVEALEGLEVEHPDGHPTILLAGSAGGSA [r2_149_TrMRF] : folding stability dG unfold at minimum 2 kcal/mol?
Result block: false (0)
